The origin of these recorded values is the supplement of paper PMC4840960.

Form field: myelination (one value per entry).
Tested on: E18 rat cortical neuron-glia co-culture
Assay: myelination (MBP fiber length per Olig2+ nucleus), % of 1 µM DAPT response (DMSO = 0) (% of DAPT); higher = more myelination, active = 50 or more
Conditions: 5 µM; treatment time: 8 days (DIV5-DIV13)
Number only, no unit.

Known myelination results, listed for orientation:
>  <molecule>
CC[C@H](C)C(=O)O[C@H]1C[C@H](O)C=C2C=C[C@H](C)[C@H](CC[C@@H](O)C[C@@H](O)CC(=O)O)[C@H]21 [Pravastatin]

>  <myelination>
-17.4

$$$$
>  <molecule>
CNC(=C[N+](=O)[O-])NCCSCc1csc(CN(C)C)n1 [Nizatidine]

>  <myelination>
-29.5

$$$$
>  <molecule>
CN(C)CCOC(C)(c1ccccc1)c1ccccn1 (configuration not stated) [Doxylamine]

>  <myelination>
-5.08

$$$$
>  <molecule>
CC1Cc2ccccc2N1NC(=O)c1ccc(Cl)c(S(N)(=O)=O)c1 (configuration not stated) [Indapamide]

>  <myelination>
6.67

$$$$
>  <molecule>
O=C1CN(/N=C/c2ccc([N+](=O)[O-])o2)C(=O)N1 [Nitrofurantoin]

>  <myelination>
44

$$$$

Shift focus to the following entry.
Exercise: Requested field: myelination. Item: CC(C)(C)NC(=O)[C@H]1CC[C@H]2[C@@H]3CC[C@H]4NC(=O)C=C[C@]4(C)[C@H]3CC[C@]12C [Finasteride]
Key: -10.7

----------
System: E18 rat cortical neuron-glia co-culture
Assay: myelination (MBP fiber length per Olig2+ nucleus), % of 1 µM DAPT response (DMSO = 0) (% of DAPT); higher = more myelination, active = 50 or more
Conditions: 1 µM; treatment time: 8 days (DIV5-DIV13)
propertyMeasured: myelination

Use these answered entries as a reference point.
>  <compound>
OC(c1cc(C(F)(F)F)nc2c(C(F)(F)F)cccc12)C1CCCCN1 (stereo not drawn) [Mefloquine]

>  <myelination>
-11.1 (inactive)

$$$$
>  <compound>
COc1cccc2c1C(=O)c1c(O)c3c(c(O)c1C2=O)C[C@@](O)(C(=O)CO)C[C@@H]3O[C@H]1C[C@H](N)[C@H](O)[C@H](C)O1 [Adriamycin]

>  <myelination>
< -51.2 (inactive)

$$$$
>  <compound>
Cc1nccn1CC1CCc2c(c3ccccc3n2C)C1=O (stereo not drawn) [Ondansetron]

>  <myelination>
-25.6 (inactive)

$$$$
>  <compound>
CN(C)[C@@H]1C(O)=C(C(=O)NCN2CCCC2)C(=O)[C@@]2(O)C(O)=C3C(=O)c4c(O)cccc4[C@@](C)(O)[C@H]3C[C@@H]12 [Rolitetracycline]

>  <myelination>
-9.77 (inactive)

$$$$
>  <compound>
NS(=O)(=O)Cc1noc2ccccc12 [Zonisamide]

>  <myelination>
-33.9 (inactive)

$$$$
>  <compound>
O=c1c(O[C@@H]2O[C@H](CO)[C@@H](O)[C@H](O)[C@H]2O)c(-c2ccc(O)c(O)c2)oc2cc(O)cc(O)c12 [Isoquercitrin]

>  <myelination>
1.55 (inactive)

$$$$
>  <compound>
CC(=O)NCCCCCCNC(C)=O [Hexamethylene bisacetamide]

>  <myelination>
-0.00866 (inactive)

$$$$
>  <compound>
COc1ccc(-c2cc(=O)c3c(OC)c(OC)c(OC)c(OC)c3o2)cc1OC [Nobiletin]

>  <myelination>
-36.3 (inactive)

$$$$
>  <compound>
CCOC(=O)[C@H](CCc1ccccc1)N[C@@H](C)C(=O)N1[C@H](C(=O)O)C[C@@H]2CCC[C@@H]21 [Ramipril]

>  <myelination>
-11.2 (inactive)

$$$$
>  <compound>
COCCCOc1ccnc(C[S+]([O-])c2nc3ccccc3[nH]2)c1C (stereo not drawn) [Rabeprazole]

>  <myelination>
-11.1 (inactive)

$$$$

Attention now shifts to the item below.
Exercise: Fill blank: measured myelination of the compound CC(C)(C)NCC(O)c1ccc(O)c(CO)c1 (stereo not drawn) [Albuterol] is ____.
Key: -29.6 (inactive)
